Taken from patent US6265423A.

- System: T-47D human mammary cancer cells
- test-name: MTT test, proliferation of T-47D
- Assay type: cell-based
- condition-context: Homo sapiens, T47D; T-47D, 10^-6 M, 72 h, control = 100%; read-out: level of proliferation
value-kind: activity at 1 µM (%)
Answers are plain numbers, in %.

Below, 3 compounds whose answers are already recorded.
CC1(C)CCC(C)(C)c2cc(/C=C(\c3ccc(C(=O)O)cc3)C(F)(F)F)ccc21 [CB36493] : 116
C/C(=C/c1ccc2c(c1)C(C)(C)CCC2(C)C)c1ccc(-c2nnn[nH]2)cc1 [CB92834] : 83.2
C/C(=C/c1ccc2c(c1)C(C)(C)CCC2(C)C)c1ccc(C(=O)O)cc1 [CB28628, reference compound] : 59.3

For the next question, use this compound.
Query: Entry CC1(C)CCC(C)(C)c2cc(/C=C(\c3ccc(-c4nnn[nH]4)cc3)C(F)(F)F)ccc21 [CB77402] : reported activity at 1 µM = ?
Response: 118

###

- Tested on: RAR and RXR receptors
- test-name: RAR/RXR activity profile drawn from the models
- Assay type: cell-based
value-kind: RAR/RXR activity profile (in words)

C/C(=C/c1ccc2c(c1)C(C)(C)CCC2(C)C)c1ccc(C(=O)O)s1 : panagonistic
CC1(C)CCC(C)(C)c2cc(/C=C(\c3ccc(C(=O)O)cc3)C(F)(F)F)ccc21 : panagonistic
C/C(=C/c1ccc2c(c1)C(C)(C)CCC2(C)C)c1ccc(C(=O)O)nc1 : panagonistic

###

- Test system: Gal4-RAR (RARα, RARβ, RARγ)
- test-name: Chimerical receptors Gal4-RAR, overall profile
- Format: cell-based
value-kind: Gal-RAR agonist profile (in words)

CC1(C)CCC(C)(C)c2cc(/C=C(\c3ccc(-c4nnn[nH]4)cc3)C(F)(F)F)ccc21 : not RAR agonists
CC1=C(/C=C/C(C)=C/C=C/C(C)=C/C(=O)O)C(C)(C)CCC1 [CB16178, all-trans retinoic acid, reference compound] : good RAR agonists
C/C(=C/c1ccc2c(c1)C(C)(C)CCC2(C)C)c1ccc(-c2nnn[nH]2)cc1 : not RAR agonists
C/C(=C\c1ccc(C(=O)O)cc1)c1ccc2c(c1)C(C)(C)CCC2(C)C [TTNPB, reference compound] : good RAR agonists

###

I'd appreciate it if you could supply RAR-ERcassette RARα transactivation values for the items below.
- System: RARα-ERcassette
- test-name: Transactivation, chimerical receptor RARα-ERcassette (HeLa)
- Assay type: cell-based
- condition-context: 10^-7 M; TTNPB 10^-8 M = 100
Numbers only, in %.

Below, 2 compounds whose answers are already recorded.
CC1(C)CCC(C)(C)c2cc(/C=C(\c3ccc(-c4nnn[nH]4)cc3)C(F)(F)F)ccc21 : 1
C/C(=C/c1ccc2c(c1)C(C)(C)CCC2(C)C)c1ccc(-c2nnn[nH]2)cc1 : 9

For the next question, use this compound.
Query: Entry CC1(C)CCC(C)(C)c2cc(/C=C(\c3ccc(C(=O)O)cc3)C(F)(F)F)ccc21 : reported RAR-ERcassette RARα transactivation = ?
Response: 15

###

- Test system: RARα-ERcassette
- test-name: Transactivation, chimerical receptor RARα-ERcassette (HeLa)
- Type: cell-based
- condition-context: 10^-7 M; TTNPB 10^-8 M = 100
value-kind: RAR-ERcassette RARα transactivation (%)
Answers are plain numbers, in %.

Cc1cc2c(cc1C(=O)c1ccc(C(=O)O)cc1)C(C)(C)CCC2(C)C [LGD-CB14499, reference compound] : 12
CC(C=C/C=C(C)\C=C\C1=C(C)CCCC1(C)C)=CC(=O)O [CB13407, 9-cis retinoic acid, reference compound] : 187
C/C(=C/c1ccc2c(c1)C(C)(C)CCC2(C)C)c1ccc(C(=O)O)cc1 [CB28628, reference compound] : 95
C/C(=C/c1ccc2c(c1)C(C)(C)CCC2(C)C)c1ccc(C(=O)O)s1 [CB30382] : 12

Batch: RAR-ERcassette RARα transactivation for all items listed.
1. C/C(=C/c1ccc2c(c1)C(C)(C)CCC2(C)C)c1ccc(C(=O)O)nc1 [CB16279]
2. C/C(=C/c1ccc2c(c1)C(C)(C)CCC2(C)C)c1ccc(C(=O)O)cn1 [CB38416]
3. CC1=C(/C=C/C(C)=C/C=C/C(C)=C/C(=O)O)C(C)(C)CCC1 [CB16178, all-trans retinoic acid, reference compound]

Response:
6
7
249
